// reported TGI per item
tested on: M19-MEL melanoma; assay: NCI tumour cell line growth inhibition, 48 h

Answered examples (4):
{"columns": ["Compound", "Observed value"],
 "data": [
  ["N#CC(C(=O)CCC(=O)Nc1ccc(Cl)cc1)c1ccccc1Cl (stereo unspecified)", "> 100 µM"],
  ["CC([C@H]1CCC2C3CCC4CC5(CC[C@]4(C)C3CC[C@@]21C)c1ccccc1C(=O)N5C)N(C)C (stereo partly specified)", "78.3 µM"],
  ["C/C(=N\\NS(=O)(=O)c1ccc(C)cc1)c1c(O)cc(C)oc1=O", "> 100 µM"],
  ["Cc1ccc(NC(=O)CC/C(CC(=O)c2ccc(Cl)cc2)=N\\NC(=O)C(=O)NN)cc1C", "> 100 µM"]
]}

Lab request: please report TGI under test system M19-MEL melanoma for `Nc1nc(N)c2nc(-c3ccco3)cnc2n1` > 100 µM

Would you kindly repeat that for CC1Cc2c(N)nc(N3CCOCC3)nc2NC1=O (stereo unspecified) ? > 100 µM
